Below, each of the compounds is paired with its reported melting point value.

Examples from the recorded data:
compound	result
CS(=O)(=O)N1CCCC1c1ccc(-c2noc(C(F)(F)F)n2)cc1 (stereo not drawn)	117.7 to 118.6 °C
FC(F)(F)c1nc(-c2ccc(-c3ccnc(Cl)c3)cc2)no1	110 to 115 °C
FC(F)(F)c1nc(-c2ccc(-c3cccc(Cl)n3)cc2)no1	115 to 120 °C
Fc1ccc(-c2ccc(-c3noc(C(F)(F)F)n3)cc2)cn1	75 to 80 °C
CCNC(=O)Nc1ccc(-c2ccc(-c3noc(C(F)(F)F)n3)cc2)cn1	190 to 195 °C

Exam item: # query: melting point of entry "FC(F)(F)c1nc(-c2ccc(N3CCCCO3)cc2)no1"
Marked response: 94 to 96 °C

Exam item: // returns reported melting point for input "CC(=O)OCc1cnc(-c2ccc(-c3noc(C(F)(F)F)n3)cc2)o1"
Marked response: 69 to 71 °C

Exam item: Any idea what its melting point is? The compound is CCCC1=NOC(c2ccc(-c3noc(C(F)(F)F)n3)cc2)C1 (stereo not drawn)
Marked response: 79 to 83 °C
